Values were extracted from patent US20240252693A1.

System: FR-positive M109 tumor
protocol_text: In vivo biodistribution in mice bearing M109 tumors; as to T/Liv: time not given here
run_conditions: 177Lu chelate, 300 nmol/kg
Documented T/Liv across a set of compounds

Some compounds with known T/Liv results, for comparison:
- line_notation: "Nc1nc2ncc(CNc3ccc(C(=O)N[C@@H](Cc4ccc(OCC(=O)NCCNC(=O)CN5CCN(CC(=O)O)CCN(CC(=O)O)CCN(CC(=O)O)CC5)cc4)C(=O)O)cc3)nc2c(=O)[nH]1"
  value_kind: "T/Liv"
  result: "8.6 +/− 3.9"
- line_notation: "Nc1nc2ncc(CNc3ccc(C(=O)N[C@@H](CCCCNC(=O)C[C@H](NC(=O)[C@H](Cc4ccc5ccccc5c4)NC(=O)[C@H](Cc4ccc5ccccc5c4)NC(=O)CN4CCN(CC(=O)O)CCN(CC(=O)O)CCN(CC(=O)O)CC4)C(=O)O)C(=O)O)cc3)nc2c(=O)[nH]1"
  value_kind: "T/Liv"
  result: "17.3 +/− 4.9"

Input Nc1nc2ncc(CNc3ccc(C(=O)N[C@@H](CCCCNC(=O)COc4ccc(C[C@H](NC(=O)CN5CCN(CC(=O)O)CCN(CC(=O)O)CCN(CC(=O)O)CC5)C(=O)O)cc4)C(=O)O)cc3)nc2c(=O)[nH]1 . Output T/Liv: 10.5 +/− 2.9

###

System: FR-positive M109 tumor
protocol_text: In vivo biodistribution in mice bearing M109 tumors; as to T/Kid: time not given here
run_conditions: 177Lu chelate, 300 nmol/kg
In this section, each of the compounds is paired with its reported T/Kid.

- line_notation: "Nc1nc2ncc(CNc3ccc(C(=O)N[C@@H](CCCCNC(=O)C[C@H](NC(=O)[C@H](Cc4ccc5ccccc5c4)NC(=O)CNC(=O)CN4CCN(CC(=O)O)CCN(CC(=O)O)CCN(CC(=O)O)CC4)C(=O)O)C(=O)O)cc3)nc2c(=O)[nH]1"
  T/Kid: "0.55 +/− 0.1"

Shift focus to the following entry.
What the record says about Nc1nc2ncc(CNc3ccc(C(=O)N[C@@H](CCCCNC(=O)C[C@H](NC(=O)[C@H](Cc4ccc(Br)cc4)NC(=O)CNC(=O)CN4CCN(CC(=O)O)CCN(CC(=O)O)CCN(CC(=O)O)CC4)C(=O)O)C(=O)O)cc3)nc2c(=O)[nH]1 : T/Kid is 0.58 +/− 0.10

###

Catalogue of compounds with associated T/Kid
Tested on: KB tumor
protocol_text: In vivo biodistribution in mice bearing KB tumors; also: time not given here
run_conditions: 225Ac chelate, 30 nmol/kg

Worked cases, T/Kid given:
- compound: "Nc1nc2ncc(CNc3ccc(C(=O)N[C@@H](CCCCNC(=O)[C@H](Cc4ccc5ccccc5c4)NC(=O)[C@H]4CC[C@H](CNC(=O)CCC(C(=O)O)N5CCN(CC(=O)O)CCN(CC(=O)O)CCN(CC(=O)O)CC5)CC4)C(=O)O)cc3)nc2c(=O)[nH]1 (some centres unmarked)"
  assayed_target: "KB tumor"
  result: "0.08 +/− 0.02"
- compound: "Nc1nc2ncc(CNc3ccc(C(=O)N[C@@H](CNC(=O)CN4CCN(CC(=O)O)CCN(CC(=O)O)CCN(CC(=O)O)CC4)C(=O)O)cc3)nc2c(=O)[nH]1"
  assayed_target: "KB tumor"
  result: "0.04 +/− 0.01"
- compound: "Nc1nc2ncc(CNc3ccc(C(=O)N[C@@H](CCCCNC(=O)[C@H](Cc4ccc5ccccc5c4)NC(=O)[C@H]4CC[C@H](CNC(=O)CN5CCN(CC(=O)O)CCN(CC(=O)O)CCN(CC(=O)O)CC5)CC4)C(=O)O)cc3)nc2c(=O)[nH]1"
  assayed_target: "KB tumor"
  result: "0.08 +/− 0.03"
- compound: "Nc1nc2ncc(CNc3ccc(C(=O)N[C@@H](CCC(=O)NC[C@H](N)C(=O)N[C@@H](CC(=O)O)C(=O)N[C@@H](CSC4CC(=O)N(CCNC(=O)CN5CCN(CC(=O)O)CCN(CC(=O)O)CCN(CC(=O)O)CC5)C4=O)C(=O)O)C(=O)O)cc3)nc2c(=O)[nH]1 (some centres unmarked)"
  assayed_target: "KB tumor"
  result: "0.07 +/− 0.03"

Please find the next compound below.
So, Nc1nc2ncc(CNc3ccc(C(=O)N[C@@H](CNC(=O)CCC(C(=O)O)N4CCN(CC(=O)O)CCN(CC(=O)O)CCN(CC(=O)O)CC4)C(=O)O)cc3)nc2c(=O)[nH]1 (some centres unmarked) ? Its T/Kid was 0.09 +/− 0.02

###

Each entry below carries its reported T/spl.
Tested on: KB tumor
protocol_text: In vivo biodistribution in mice bearing KB tumors; also: time not given here
run_conditions: 225Ac chelate, 30 nmol/kg

- compound: "Nc1nc2ncc(CNc3ccc(C(=O)N[C@@H](CCCCNC(=O)[C@H](Cc4ccc5ccccc5c4)NC(=O)[C@H]4CC[C@H](CNC(=O)CCC(C(=O)O)N5CCN(CC(=O)O)CCN(CC(=O)O)CCN(CC(=O)O)CC5)CC4)C(=O)O)cc3)nc2c(=O)[nH]1 (stereo partly drawn) [Compound 26]"
  value_kind: "T/spl"
  result: "20.4 +/− 5.6"

Form: compound = Nc1nc2ncc(CNc3ccc(C(=O)N[C@@H](CNC(=O)CN4CCN(CC(=O)O)CCN(CC(=O)O)CCN(CC(=O)O)CC4)C(=O)O)cc3)nc2c(=O)[nH]1 [Compound 3] ; T/spl = 6.8 +/− 2.9

Value of T/spl reported for the compound Nc1nc2ncc(CNc3ccc(C(=O)N[C@@H](CCC(=O)NC[C@H](N)C(=O)N[C@@H](CC(=O)O)C(=O)N[C@@H](CSC4CC(=O)N(CCNC(=O)CN5CCN(CC(=O)O)CCN(CC(=O)O)CCN(CC(=O)O)CC5)C4=O)C(=O)O)C(=O)O)cc3)nc2c(=O)[nH]1 (stereo partly drawn) [Compound 25] is 15.8 +/− 5.9

###

Test system: FR-positive M109 tumor
protocol_text: In vivo biodistribution in mice bearing M109 tumors; as to T/Kid: time not given here
run_conditions: 177Lu chelate, 300 nmol/kg
value_kind: T/Kid

- compound: "Nc1nc2ncc(CNc3ccc(C(=O)N[C@@H](Cc4ccc(OCC(=O)NCCNC(=O)CN5CCN(CC(=O)O)CCN(CC(=O)O)CCN(CC(=O)O)CC5)cc4)C(=O)O)cc3)nc2c(=O)[nH]1 [Compound 61, Pte-Tyr(OCH2CO-EDA-DOTA)-OH]"
  T/Kid: "0.27 +/− 0.03"

The record that follows has no T/Kid shown yet.
Kindly note the recorded T/Kid for Nc1nc2ncc(CNc3ccc(C(=O)N[C@@H](CCCCNC(=O)COc4ccc(C[C@H](NC(=O)CN5CCN(CC(=O)O)CCN(CC(=O)O)CCN(CC(=O)O)CC5)C(=O)O)cc4)C(=O)O)cc3)nc2c(=O)[nH]1 [Compound 38] , which is 0.46 +/− 0.03

###

Test system: FR-positive M109 tumor
protocol_text: In vivo biodistribution in mice bearing M109 tumors; as to T/Liv: time not given here
run_conditions: 177Lu chelate, 300 nmol/kg
value_kind: T/Liv

- compound: "Nc1nc2ncc(CNc3ccc(C(=O)N[C@@H](CCCCNC(=O)C[C@H](NC(=O)[C@H](Cc4ccc(Br)cc4)NC(=O)CNC(=O)CN4CCN(CC(=O)O)CCN(CC(=O)O)CCN(CC(=O)O)CC4)C(=O)O)C(=O)O)cc3)nc2c(=O)[nH]1 [Compound 43, Pte-Lys(β-Asp-4-Br-Phe-Gly-DOTA)-OH]"
  assayed_target: "FR-positive M109 tumor"
  T/Liv: "13.0 +/− 3.7"

# T/Liv of CSCC[C@H](NC(=S)Nc1ccc(CC2CN(CC(=O)O)CCN(CC(=O)O)CCN(CC(=O)O)CCN2CC(=O)O)cc1)C(=O)N[C@H](C(=O)N[C@@H](CCCCN1C(=O)CC(SC[C@@H](NC(=O)[C@H](CC(=O)O)NC(=O)[C@H](CC(=O)O)NC(=O)[C@H](CCCNC(=N)N)NC(=O)[C@H](CC(=O)O)NC(=O)CC[C@H](NC(=O)c2ccc(NCc3cnc4nc(N)[nH]c(=O)c4n3)cc2)C(=O)O)C(=O)O)C1=O)C(=O)O)C(C)C (stereo partly drawn) [Compound 58] = 28.8 +/− 2.9

T/Liv measured on Nc1nc2ncc(CNc3ccc(C(=O)N[C@@H](CCCCNC(=O)C[C@H](NC(=O)[C@H](Cc4ccc5ccccc5c4)NC(=O)CNC(=O)CN4CCN(CC(=O)O)CCN(CC(=O)O)CCN(CC(=O)O)CC4)C(=O)O)C(=O)O)cc3)nc2c(=O)[nH]1 [Compound 34] = 25.3 +/− 6.6

###

Test system: FR-positive M109 tumor
protocol_text: In vivo biodistribution in mice bearing M109 tumors
run_conditions: 177Lu chelate, 300 nmol/kg
value_kind: T^2/kid

Consider Nc1nc2ncc(CNc3ccc(C(=O)N[C@@H](CCCCNC(=O)COc4ccc(C[C@H](NC(=O)COc5ccc(C[C@H](NC(=O)CN6CCN(CC(=O)O)CCN(CC(=O)O)CCN(CC(=O)O)CC6)C(=O)O)cc5)C(=O)O)cc4)C(=O)O)cc3)nc2c(=O)[nH]1 [Compound 39] . Its measured T^2/kid is 1.68 +/− 0.59
